- Test Target: Human SARS-CoV-2_Wuhan S (SmT1) (SARS-CoV-2 (Wuhan), UniProt P0DTC2 14-1208)
- Assay Text: flow cytometry SVNA, VHH-Fc vs biotin-S binding to Vero E6 ACE2
Entries annotated with measured IC99
Please reply with the bare figure in nM and do not write the unit itself.

See these solved cases before continuing.
{"columns": ["Binder", "IC99 (nM)"],
 "data": [
  ["NRCoV2-1a VHH-Fc (Fc fusion, bivalent VHH-Fc) EVKLVQSGGGSVQPGGSLRLSCAASGSTLDYYAIGWFRQAPGKEREWVSCVSSSDGSTLYADSVKGRFTISRDNAKNTVYLQMNSLKPEDTAVYVCAADYSMRPLWVSRWHRDYEYWGQGTQVTVSS", 89.4],
  ["NRCoV2-SR01 VHH-Fc (Fc fusion, bivalent VHH-Fc) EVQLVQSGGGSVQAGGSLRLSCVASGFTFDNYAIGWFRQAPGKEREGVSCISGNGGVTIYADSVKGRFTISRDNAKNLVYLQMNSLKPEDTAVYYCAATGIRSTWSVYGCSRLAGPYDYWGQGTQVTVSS", 56.9],
  ["NRCoV2-04 VHH-Fc (Fc fusion, bivalent VHH-Fc) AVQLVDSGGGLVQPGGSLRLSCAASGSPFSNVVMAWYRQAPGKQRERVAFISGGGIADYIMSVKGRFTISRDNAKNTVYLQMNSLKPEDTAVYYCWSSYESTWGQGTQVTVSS", 420]
]}

Problem: Entry NRCoV2-14 VHH-Fc (Fc fusion, bivalent VHH-Fc) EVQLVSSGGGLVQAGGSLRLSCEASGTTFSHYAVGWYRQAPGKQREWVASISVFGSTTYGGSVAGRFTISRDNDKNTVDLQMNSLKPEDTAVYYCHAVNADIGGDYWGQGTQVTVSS has what IC99?
Result: 160
